- Test system: Saccharomyces cerevisiae
- experiment.description: protein stability index of tFT-peptide fusion (C-terminal peptide) (PSI (0-1 scale)); higher = more stable (slower turnover);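 also: PSI is a weighted mean of sequencing reads over stability bins, variants kept only with over 10 reads, mCherry proximal and sfGFP distal, peptide attached via GGGS linker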
- condition.label: genetic background: wild type; temperature: 30 C
Threshold rule: protein stability index greater than or equal to 0.7 is fulfilled; below that, not fulfilled.

>>> df
    sequence_data  assigned_class
 0   GFGDKVPWRWVI   not fulfilled
 1   SSLPAPSPVPSP       fulfilled
 2   LLRFFPLLLFSF   not fulfilled
 3   TLWLVSTAVLDC   not fulfilled
 4   SGVVSASFVVLD   not fulfilled
 5   GLLLRLRNLFCM   not fulfilled
 6   PASLPPRAPPPL   not fulfilled
 7   GGFGSCVGHVLG       fulfilled
 8   CLHFLTWVRICS   not fulfilled
 9   KQKKTKKTKKQN   not fulfilled
10   AKEIVYAPRNPD   not fulfilled
11   MALAVRVVLCGA   not fulfilled
12   LLTGRFRILLVV   not fulfilled

---

- System: Saccharomyces cerevisiae
- experiment.description: protein stability index of tFT-peptide fusion (C-terminal peptide) (PSI (0-1 scale)); higher = more stable (slower turnover)
- condition.label: genetic background: das1 deletion; temperature: 30 C
parameter.measured: protein stability index

>>> df
   sequence_data                 tested_on       parameter_measured  data_value
0   FVVLVFMLGSVC  Saccharomyces cerevisiae  protein stability index       0.254
1   VSLSEVAIIVHG  Saccharomyces cerevisiae  protein stability index       0.418
2   SWELKWVYARVV  Saccharomyces cerevisiae  protein stability index       0.516
3   VCLVAGVFFCLL  Saccharomyces cerevisiae  protein stability index        0.44

---

- Tested on: Saccharomyces cerevisiae
- experiment.description: protein stability index of tFT-peptide fusion (C-terminal peptide) (PSI (0-1 scale)); higher = more stable (slower turnover)
- condition.label: genetic background: wild type; temperature: 30 C
parameter.measured: protein stability index

>>> df
    sequence_data       parameter_measured  data_value
 0   FSHPQPLLPFPV  protein stability index       0.662
 1   PRGLRIHSRLRG  protein stability index       0.678
 2   PPLPPLPAPSPV  protein stability index       0.652
 3   EGHTRLPSPSPS  protein stability index       0.677
 4   KKKHKNNIQKKK  protein stability index       0.613
 5   QVFVRRSSPRVL  protein stability index       0.666
 6   GFPRSPALCSQP  protein stability index       0.689
 7   CPYIFLLSLGNT  protein stability index       0.651
 8   LHAGWNLISSRL  protein stability index       0.633
 9   ASRHGALIVLST  protein stability index        0.67
10   RKATGVLQVQDY  protein stability index       0.749
11   LDVAFLMSRFSS  protein stability index       0.731
12   FSPRHSPFSVAR  protein stability index       0.803
13   VVLWVVCWGCWK  protein stability index       0.328

---

Recorded protein stability index by entry
- Test system: Saccharomyces cerevisiae
- experiment.description: protein stability index of tFT-peptide fusion (C-terminal peptide) (PSI (0-1 scale)); higher = more stable (slower turnover)
- condition.label: genetic background: wild type; temperature: 30 C
parameter.measured: protein stability index

In [3]: df
Out[3]:
    sequence_data                 tested_on  data_value
 0   RPPSLSPAPAPP  Saccharomyces cerevisiae        0.73
 1   TKKKQKIKKNNS  Saccharomyces cerevisiae       0.748
 2   VRRGVGAVVFGG  Saccharomyces cerevisiae       0.655
 3   DGYLFKGIWFFV  Saccharomyces cerevisiae       0.189
 4   VFAHCSRHRGST  Saccharomyces cerevisiae        0.71
 5   LPCPSFPSLPFL  Saccharomyces cerevisiae       0.646
 6   ILVHFQGVHTVL  Saccharomyces cerevisiae       0.663
 7   NMQRKSRNQIID  Saccharomyces cerevisiae       0.707
 8   KKKKEEKWSSAR  Saccharomyces cerevisiae       0.709
 9   HTFSRLHSLPIR  Saccharomyces cerevisiae       0.693
10   ARFGYYLGLGRC  Saccharomyces cerevisiae       0.748
11   SGTVRSTPPHPP  Saccharomyces cerevisiae       0.664
12   LPPHRSSTPPPA  Saccharomyces cerevisiae       0.644

The values you see were collected from the supplement of paper PMC10724198.
